System: Bemisia tabaci imagoes
methodNotes: Test Example 1: cabbage leaf disc immersion test on Bemisia tabaci imagoes, controlling value after 4 days
Assay type: in vivo
conditionContext: foliar, 96 h, compound I alone 400 ppm, cabbage leaf disc immersed 30 seconds

| compound | scaleUnit | pest or weed control at 400 ppm |
| --- | --- | --- |
| COC(=O)NNC(=O)c1cc(Cl)cc(C)c1NC(=O)c1cc(C(F)(F)F)nn1-c1ncccc1Cl [compound I-(5)] | % | 100 |
| COC(=O)NN(C)C(=O)c1cc(Cl)cc(C)c1NC(=O)c1cc(Br)nn1-c1ncccc1Cl [compound I-(115)] | % | 51 |
| COC(=O)N(C)N(C)C(=O)c1cc(Cl)cc(C)c1NC(=O)c1cc(Br)nn1-c1ncccc1Cl [compound I-(119)] | % | 100 |
| COC(=O)NNC(=O)c1cc(Br)cc(Br)c1NC(=O)c1cc(Br)nn1-c1ncccc1Cl [compound I-(68)] | % | 95 |
| COC(=O)NNC(=O)c1cc(Cl)cc(C)c1NC(=O)c1cc(Br)nn1-c1ncccc1Cl [compound I-(34)] | % | 100 |
| COC(=O)NNC(=O)c1cc(C#N)cc(C)c1NC(=O)c1cc(Br)nn1-c1ncccc1Cl [compound I-(117)] | % | 86 |
| COC(=O)N(C)N(C)C(=O)c1cc(Br)cc(Br)c1NC(=O)c1cc(Br)nn1-c1ncccc1Cl [compound I-(204)] | % | 100 |

Value source: patent US20100099692A1
